- target-of-assay: T1, Cyno CD33 full length (cynomolgus monkey)
- T1 construct: also called cyCD33
- assay-comment: flow cytometry on HEK293F cells expressing cyno CD33
readout-type: MFI at 6 nM (MFI)
Hi! Could you send only the number? It should be in MFI, unit omitted.

Here is how some binders turned out for MFI at 6 nM.
C33B912 (antibody, V domains shown, OMNIMouse-derived anti-CD33 mAb; also called C33H252/C33L118; C33F550) VH: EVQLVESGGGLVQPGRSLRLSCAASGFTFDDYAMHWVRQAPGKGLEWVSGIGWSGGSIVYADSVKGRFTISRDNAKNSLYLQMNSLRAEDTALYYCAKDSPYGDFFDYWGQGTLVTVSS VL: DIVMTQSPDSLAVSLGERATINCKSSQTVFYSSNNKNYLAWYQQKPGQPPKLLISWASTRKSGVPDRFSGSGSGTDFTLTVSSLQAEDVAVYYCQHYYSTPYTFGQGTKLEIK; 7270
C33B915 (antibody, V domains shown, OMNIMouse-derived anti-CD33 mAb; same V regions as C33B907; also called C33H255/C33L121; C33F553) VH: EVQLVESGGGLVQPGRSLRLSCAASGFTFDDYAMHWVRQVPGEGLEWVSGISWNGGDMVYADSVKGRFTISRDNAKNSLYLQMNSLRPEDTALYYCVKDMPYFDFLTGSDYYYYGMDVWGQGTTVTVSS VL: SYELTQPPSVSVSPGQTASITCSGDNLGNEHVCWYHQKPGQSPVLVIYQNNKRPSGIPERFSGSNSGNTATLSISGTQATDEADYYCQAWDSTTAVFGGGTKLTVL; 35700

Now for another entry.
Problem: Please look up its MFI at 6 nM: C33B914 (antibody, V domains shown, OMNIMouse-derived anti-CD33 mAb; same V regions as C33B906; also called C33H254/C33L120; C33F552) VH: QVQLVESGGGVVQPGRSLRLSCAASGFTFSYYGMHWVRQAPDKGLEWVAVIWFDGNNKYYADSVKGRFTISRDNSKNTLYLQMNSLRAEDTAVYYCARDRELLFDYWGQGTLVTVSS VL: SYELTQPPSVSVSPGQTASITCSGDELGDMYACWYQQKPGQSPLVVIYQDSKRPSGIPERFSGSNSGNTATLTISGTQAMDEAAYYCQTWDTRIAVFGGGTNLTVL
Solution: 33400
